ASSAYED_SYSTEM: UniProtKB P12527
Sequence (P12527 whole entry): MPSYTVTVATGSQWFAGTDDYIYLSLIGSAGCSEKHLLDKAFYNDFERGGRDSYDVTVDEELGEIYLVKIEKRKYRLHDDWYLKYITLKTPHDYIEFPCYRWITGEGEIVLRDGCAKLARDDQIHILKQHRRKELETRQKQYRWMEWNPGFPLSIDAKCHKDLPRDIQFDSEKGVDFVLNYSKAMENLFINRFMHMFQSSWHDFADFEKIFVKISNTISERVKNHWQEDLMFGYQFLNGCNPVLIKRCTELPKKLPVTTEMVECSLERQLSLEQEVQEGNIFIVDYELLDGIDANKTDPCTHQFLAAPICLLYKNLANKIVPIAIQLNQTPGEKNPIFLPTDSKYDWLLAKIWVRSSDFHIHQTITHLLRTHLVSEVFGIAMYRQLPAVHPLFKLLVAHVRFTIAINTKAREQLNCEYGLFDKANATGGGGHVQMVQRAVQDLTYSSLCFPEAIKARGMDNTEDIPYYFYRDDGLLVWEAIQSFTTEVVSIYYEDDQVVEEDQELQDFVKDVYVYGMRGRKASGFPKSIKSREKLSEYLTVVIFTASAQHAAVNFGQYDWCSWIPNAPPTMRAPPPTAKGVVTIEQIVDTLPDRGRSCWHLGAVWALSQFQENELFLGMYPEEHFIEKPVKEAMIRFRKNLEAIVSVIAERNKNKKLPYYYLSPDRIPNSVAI
PROTOCOL_TEXT: In vitro inhibition of RBL-1 5-lipoxygenase; Value ranges from 1.0-2.4
Type: cell-based
MEASURED_ENDPOINT: pIC50
The scale used: pIC50 is minus the common logarithm of the concentration in molar units.

Look up pIC50 of `COc1cccc(Cc2nc3c(C)ccc(O)c3[nH]2)c1` and report it.
5.77

* * *

ASSAYED_SYSTEM: Polyunsaturated fatty acid 5-lipoxygenase (Rattus norvegicus, UniProt P12527)
PROTOCOL_TEXT: In vitro inhibition of RBL-1 5-lipoxygenase; Value ranges from 0.4-2.2
Assay type: cell-based
MEASURED_ENDPOINT: pIC50
// returns pIC50 (minus log10 of molar concentration), number only

Give pIC50 for `Cc1ccc(O)c2nc(Cc3ccccc3)[nH]c12`
5.92

* * *

Listed next: entries and their corresponding pIC50.
ASSAYED_SYSTEM: UniProtKB P12527
Sequence (P12527 whole entry): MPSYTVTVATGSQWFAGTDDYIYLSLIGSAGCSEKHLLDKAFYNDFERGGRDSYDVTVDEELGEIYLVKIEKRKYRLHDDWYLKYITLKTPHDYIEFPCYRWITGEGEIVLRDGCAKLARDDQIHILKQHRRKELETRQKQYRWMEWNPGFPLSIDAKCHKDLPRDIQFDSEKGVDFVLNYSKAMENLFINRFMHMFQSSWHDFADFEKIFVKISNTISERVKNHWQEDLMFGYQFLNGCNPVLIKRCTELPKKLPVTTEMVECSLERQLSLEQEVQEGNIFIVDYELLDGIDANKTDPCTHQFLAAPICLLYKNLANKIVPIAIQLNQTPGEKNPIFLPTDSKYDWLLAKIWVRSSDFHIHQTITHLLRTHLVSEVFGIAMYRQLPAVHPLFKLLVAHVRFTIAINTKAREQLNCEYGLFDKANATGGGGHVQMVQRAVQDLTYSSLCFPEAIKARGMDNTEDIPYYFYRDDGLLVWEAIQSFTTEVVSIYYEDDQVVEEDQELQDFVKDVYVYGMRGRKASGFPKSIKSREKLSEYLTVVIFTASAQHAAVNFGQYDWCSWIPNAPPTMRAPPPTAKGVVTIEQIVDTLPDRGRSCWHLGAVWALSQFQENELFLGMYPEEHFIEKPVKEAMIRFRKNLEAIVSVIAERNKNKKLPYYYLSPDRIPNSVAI
PROTOCOL_TEXT: In vitro inhibition of RBL-1 5-lipoxygenase
Type: cell-based
The meaning of pIC50 here: minus log10 of the concentration in molar units.

- QUERY_SMILES: "Oc1cccc2[nH]c(Cc3ccccc3)nc12"
  pIC50: 4.70
- QUERY_SMILES: "CC1=C(C)C(=O)C(CCCCC#CCCCC#CCO)=C(C)C1=O"
  pIC50: 5.70

Let us move to another entry and its pIC50.
Look up and report measured pIC50 for this entry: `COc1ccc(Cc2nc3c(O)cccc3[nH]2)cc1`
4.70

* * *

ASSAYED_SYSTEM: Polyunsaturated fatty acid 5-lipoxygenase (Rattus norvegicus)
PROTOCOL_TEXT: In vitro inhibition of RBL-1 5-lipoxygenase; Value ranges from 4.9-11.6
Type: cell-based
MEASURED_ENDPOINT: IC50 (µM)
Could you give me the number in µM? Just the number is fine.

Give the reported value of IC50 for this record: `Cc1ccc(O)c2[nH]c(Cc3ccc(O)cc3)nc12.Cl`
6.9

* * *

ASSAYED_SYSTEM: Polyunsaturated fatty acid 5-lipoxygenase (Rattus norvegicus, UniProt P12527)
Sequence (P12527 whole entry): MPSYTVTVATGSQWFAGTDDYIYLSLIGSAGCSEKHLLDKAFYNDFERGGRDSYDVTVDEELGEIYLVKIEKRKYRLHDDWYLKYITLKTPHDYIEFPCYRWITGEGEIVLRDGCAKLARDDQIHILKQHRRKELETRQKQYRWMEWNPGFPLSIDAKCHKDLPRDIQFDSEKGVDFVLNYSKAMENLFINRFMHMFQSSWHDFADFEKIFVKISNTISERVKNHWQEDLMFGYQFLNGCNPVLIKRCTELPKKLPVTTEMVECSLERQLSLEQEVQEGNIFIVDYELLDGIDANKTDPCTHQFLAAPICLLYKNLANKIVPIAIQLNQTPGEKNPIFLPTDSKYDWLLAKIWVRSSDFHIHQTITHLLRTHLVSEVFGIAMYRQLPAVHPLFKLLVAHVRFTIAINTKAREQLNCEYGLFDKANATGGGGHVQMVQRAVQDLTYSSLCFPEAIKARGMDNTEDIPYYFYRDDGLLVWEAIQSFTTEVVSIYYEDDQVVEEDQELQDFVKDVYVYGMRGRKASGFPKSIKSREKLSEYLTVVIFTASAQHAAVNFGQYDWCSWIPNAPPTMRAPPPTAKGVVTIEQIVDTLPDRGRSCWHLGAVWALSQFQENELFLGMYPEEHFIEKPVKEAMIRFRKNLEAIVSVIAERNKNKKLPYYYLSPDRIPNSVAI
PROTOCOL_TEXT: In vitro inhibition of RBL-1 5-lipoxygenase; Value ranges from 1.0-1.5
Format: cell-based
MEASURED_ENDPOINT: IC50 (nM)
Enter your answer as a number in nM; do not include the unit.

Please list IC50 recorded for the compound `Cc1ccc(O)c2[nH]c(-c3ccccc3)nc12`
1200

* * *

ASSAYED_SYSTEM: Polyunsaturated fatty acid 5-lipoxygenase (Rattus norvegicus)
PROTOCOL_TEXT: In vitro inhibition of RBL-1 5-lipoxygenase; Value ranges from 3.8-7.1
Format: cell-based
MEASURED_ENDPOINT: IC50 (µM)
Give the number; µM is assumed, so skip it.

Would you please give the reported IC50 of `COc1ccc(Cc2nc3c(C)ccc(O)c3[nH]2)cc1OC.Cl` with Polyunsaturated fatty acid 5-lipoxygenase (Rattus norvegicus)?
5.2

* * *

ASSAYED_SYSTEM: UniProt P12527
Sequence (P12527 whole entry): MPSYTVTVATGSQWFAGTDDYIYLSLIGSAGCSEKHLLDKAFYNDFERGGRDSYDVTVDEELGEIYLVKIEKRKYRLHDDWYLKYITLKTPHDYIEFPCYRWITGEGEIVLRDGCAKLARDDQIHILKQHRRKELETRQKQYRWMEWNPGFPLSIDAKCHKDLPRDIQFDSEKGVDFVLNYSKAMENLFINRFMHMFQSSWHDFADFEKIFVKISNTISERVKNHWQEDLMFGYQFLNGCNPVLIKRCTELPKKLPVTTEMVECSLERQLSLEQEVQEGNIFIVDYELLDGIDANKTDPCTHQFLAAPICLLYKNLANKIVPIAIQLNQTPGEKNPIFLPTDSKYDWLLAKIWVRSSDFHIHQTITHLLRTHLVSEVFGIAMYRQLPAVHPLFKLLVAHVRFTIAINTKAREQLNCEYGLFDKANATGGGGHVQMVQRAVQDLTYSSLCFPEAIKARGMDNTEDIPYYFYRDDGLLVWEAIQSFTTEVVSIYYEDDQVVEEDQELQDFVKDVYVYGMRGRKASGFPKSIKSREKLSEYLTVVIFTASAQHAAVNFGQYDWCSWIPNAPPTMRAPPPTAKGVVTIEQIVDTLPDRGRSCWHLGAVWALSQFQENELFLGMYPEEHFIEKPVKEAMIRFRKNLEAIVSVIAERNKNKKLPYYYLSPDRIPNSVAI
PROTOCOL_TEXT: In vitro inhibition of RBL-1 5-lipoxygenase; Value ranges from 1.7-2.6
Type: cell-based
MEASURED_ENDPOINT: IC50 (µM)
Numeric answer only, unit µM assumed.

Find the measured IC50 of `COc1ccc(Cc2nc3c(C)ccc(O)c3[nH]2)cc1.Cl` and report it.
2.1
